# System: phosphomevalonate kinase (Streptococcus pneumoniae D39)
# procedure.text: phosphomevalonate kinase enzyme inhibition – biochemical, mevalonate pathway, pilot trial included, primary screen (AID 539);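 note: 0% = full reaction with DMSO carrier and 100% = background rate without enzyme reaction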
# details: purified PMK, PK/LDH-coupled NADH absorbance 340 nm; at 10 µM; active compounds read high
The campaign covered roughly 65,000 compounds. About 320 (0.49%) were called active. The entries come from a sample that favours actives as a whole.
Recorded inhibition, one value per entry.
Entry rule: numbers only, all in %.

INSERT INTO measurements (molecule, meas_value) VALUES
  ('Cc1ccc(C)n1C(Cc1ccccc1)C(=O)O (stereo unspecified)', 7);

Turning now to a further record.
Data request: # get_value(readout= inhibition, system= phosphomevalonate kinase (Streptococcus pneumoniae D39)) for Nc1c(C(=O)NCc2ccccc2)nnn1Cc1cccc(Cl)c1
Data returned: 0
